- Test system: SF-539 CNS
- Protocol: NCI-60 one-dose screen, 48 h (100 = growth as untreated, 0 = no growth, -100 = all killed)
- Test settings: 10 µM unless noted
The panel holds about 83,000 compounds, 20% with a hit somewhere; the sample as a whole holds those more often.
Criterion: growth strictly under 60%. Met: Criterion met. Not met: Criterion not met.

I'd appreciate it if you could check whether Cc1nn(-c2nc3ccccc3[nH]2)c2c1C(c1ccc(O)cc1)CC(=O)N2 (configuration not stated) has growth smaller than 60%. Criterion not met

And what about the compound `CN1CCN(CC(=O)Nc2ccc(-c3nc4ccccc4s3)cc2)CC1` ? Criterion met

Same again, this time with `N#Cc1cc2[nH]c3ccc(OC(F)(F)F)cc3c2oc1=O` Criterion not met

Again, but for `COc1ccc(Cc2cc(-c3ccccc3C)n[nH]c2=O)cc1` Criterion not met

What about this compound? `CSc1nc2ncnc(SC)c2[nH]1` Criterion not met

Now give it for `Cc1cc(-c2cc(OC(=O)c3ccccc3)ccc2Cl)cc2nnc(Nc3ccc(OCCN4CCCC4)cc3)nc12` too. Criterion not met

What about this compound? `COC(=O)N[C@@H](C)CNc1nccc(-c2cn(C(C)C)nc2-c2cc(Cl)cc(NS(C)(=O)=O)c2F)n1` Criterion not met

Would you mind doing `COC(=O)c1[nH]cnc1/N=N/N(C)CCO` as well? Criterion not met

Would you kindly repeat that for `CN(C)C[C@@H]1CCn2cc(c3ccccc32)C2=C(C(=O)NC2=O)c2cn(c3ccccc23)CCO1` ? Criterion met

Proceed to `N[C@@H]1CCCN(c2c(/C=C3\SC(=O)NC3=O)cccc2-c2ccccc2)C1` Criterion met

Also, Cc1ccccc1N1C(c2ccccc2)=NNC12C=CC(=O)C=C2Cl (configuration not stated) please. Criterion not met

Now this one: `CN(c1ncccc1CNc1nc(Nc2ccc3c(c2)CC(=O)N3)ncc1C(F)(F)F)S(C)(=O)=O` Criterion met

# iterate: `Cc1cc(C(=O)Nc2cc(Oc3ccc4nc(NC(=O)C5CC5)cn4n3)ccc2C)n(C)n1` Criterion met

Now the same for `CCCCn1c(C)nc2cc(Nc3nc(N4CCCCC4)nc4nc[nH]c34)ccc21` Criterion not met

And CC1=CC2c3oc(-c4ccccc4)c(C(=O)c4ccccc4)c3CNC2C=C1 (configuration not stated) ? Criterion not met

Do the same for `CSC1=C(N)C(=O)c2[nH]cc(CO)c2C1=N` please Criterion met

Now try `CNC(=O)c1c(C)oc2cc(Oc3ncnc4cc(OC)c(OC)cc34)ccc12` . Criterion met

Another compound: `CN1CCN(CCCOc2cccc3nc(Nc4ccc(Cl)c(C(F)(F)F)c4)ccc23)CC1` Criterion met

// query: `Cc1ccc(F)c(NC(=O)Nc2ccc(-c3cccc4[nH]nc(N)c34)cc2)c1` Criterion met

Also need `CC[C@H](CO)Nc1nc(NCc2ccccc2)c2ncn(C(C)C)c2n1` , thanks. Criterion met

Now this one: `Cc1ccc(N=C2CSc3nnc(-c4csc5c4CCCC5)n3N2)cc1` Criterion met
